All figures here come from paper PMC6061410.

Assay: Pharmacokinetics of 25-mg single morning or evening dose, part 2
Assay type: in vivo, human
Settings: human, plasma, oral, 25 mg
readoutKind: AUC(0-t) (µM·h)

INSERT INTO results (mol, endpointresult) VALUES
  ('C[C@@H](Oc1ccc(S(C)(=O)=O)cc1C(=O)N1C[C@@H]2C[C@]2(c2cc(C(F)(F)F)on2)C1)C(F)(F)F', 7);

====

Test: Pharmacokinetics after single and multiple doses, part 1
Format: in vivo, human
Details: human, plasma, oral, 25 mg, AUC0–24, young, 25 mg QD, single dose, gMean (%CV)
readoutKind: AUC(0-t) (µM·h)

INSERT INTO results (molecule, endpointresult) VALUES
  ('C[C@@H](Oc1ccc(S(C)(=O)=O)cc1C(=O)N1C[C@@H]2C[C@]2(c2cc(C(F)(F)F)on2)C1)C(F)(F)F [BI 425809]', 3.72);

====

Experiment: Pharmacokinetics after single and multiple doses, part 1
Type: in vivo, human
Conditions: human, plasma, oral, 25 mg, AUC0–24, elderly, 25 mg QD, single dose, gMean (%CV)
readoutKind: AUC(0-t) (µM·h)

INSERT INTO assay_data (mol, readingunit, endpointresult) VALUES
  ('C[C@@H](Oc1ccc(S(C)(=O)=O)cc1C(=O)N1C[C@@H]2C[C@]2(c2cc(C(F)(F)F)on2)C1)C(F)(F)F', 'µM·h', 3.46);

====

Experiment: Pharmacokinetics after single and multiple doses, part 1
Type: in vivo, human
Settings: human, plasma, oral, 75 mg, Cmax, young, 75 mg BID, single dose, fed, gMean (%CV)
readoutKind: Cmax

INSERT INTO measurements (compound, endpointresult) VALUES
  ('C[C@@H](Oc1ccc(S(C)(=O)=O)cc1C(=O)N1C[C@@H]2C[C@]2(c2cc(C(F)(F)F)on2)C1)C(F)(F)F [BI 425809]', '884 nM');

====

Experiment: Pharmacokinetics after single and multiple doses, part 1
Format: in vivo, human
Conditions: human, plasma, oral, 50 mg, tmax, young, 50 mg QD, single dose, median and range (minimum, maximum)
readoutKind: Tmax (h)

INSERT INTO measurements (mol, readoutkind, endpointresult) VALUES
  ('C[C@@H](Oc1ccc(S(C)(=O)=O)cc1C(=O)N1C[C@@H]2C[C@]2(c2cc(C(F)(F)F)on2)C1)C(F)(F)F', 'Tmax', 4.5);

====

Experiment: Pharmacokinetics after single and multiple doses, part 1
Format: in vivo, human
Conditions: human, plasma, oral, 25 mg, tmax,ss, elderly, 25 mg QD, multiple dose, median and range (minimum, maximum)
readoutKind: Tmax (h)

INSERT INTO results (mol, readoutkind, endpointresult) VALUES
  ('C[C@@H](Oc1ccc(S(C)(=O)=O)cc1C(=O)N1C[C@@H]2C[C@]2(c2cc(C(F)(F)F)on2)C1)C(F)(F)F', 'Tmax', 3);

====

Experiment: Pharmacokinetics after single and multiple doses, part 1
Type: in vivo, human
Details: human, plasma, oral, 75 mg, tmax,ss, young, 75 mg BID, multiple dose, tmax,22 given, median and range (minimum, maximum)
readoutKind: Tmax

INSERT INTO results (mol, readoutkind, endpointresult) VALUES
  ('C[C@@H](Oc1ccc(S(C)(=O)=O)cc1C(=O)N1C[C@@H]2C[C@]2(c2cc(C(F)(F)F)on2)C1)C(F)(F)F', 'Tmax', '3.5 h');
